compound: Cc1nsc(Cl)c1C(=O)N/N=C/C=C/c1ccccc1 [Compound 3]
melting point: 180 to 181 °C

compound: CCc1ccc(/C=N/NC(=O)c2c(C)nsc2Cl)cc1 [Compound 6]
melting point: 152 to 154 °C

compound: Cc1nsc(Cl)c1C(=O)N/N=C/c1ccccc1Cl [Compound 11]
melting point: 232 to 233 °C

compound: Cc1nsc(Cl)c1C(=O)N/N=C/c1cccc([N+](=O)[O-])c1 [Compound 5]
melting point: 199 to 200 °C

compound: Cc1ccccc1/C=N/NC(=O)c1c(C)nsc1Cl [Compound 10]
melting point: 226 to 228 °C
